Provide the recorded MFI for the entries that follow.
- TESTED_SYSTEM: T1, native Ovr110 protein on tumor cells (ZR-75-1, SKBR3, RL95.2, OVCAR3) (human, UniProt Q7Z7D3 25-282)
- T1 construct: whole, on cells; Endogenous protein of Ovr110-positive tumor cell lines; also called B7-H4; B7x
- T1 sequence (looked up): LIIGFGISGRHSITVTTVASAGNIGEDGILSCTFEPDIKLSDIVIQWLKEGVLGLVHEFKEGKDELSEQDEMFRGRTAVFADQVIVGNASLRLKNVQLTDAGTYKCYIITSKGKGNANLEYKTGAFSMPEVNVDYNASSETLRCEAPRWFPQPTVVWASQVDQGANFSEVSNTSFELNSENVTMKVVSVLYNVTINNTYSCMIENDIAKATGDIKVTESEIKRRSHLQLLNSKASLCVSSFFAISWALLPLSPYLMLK
- TEST_METHOD_NOTES: flow cytometry; purified MAb; SKBR3 cells
Give bare numbers.

| BINDER | MFI |
| --- | --- |
| Ovr110.Q19 (antibody, IgG1, V domains shown, Mouse hybridoma MAb; also called Q19.6; Ovr110.Q19.6) VH: DVLLQESGPGLVKASQSLSLTCSVTGYSITSGYFWNWIRQFPGNKLEWMGYISYDGGNSYNPSLKNRISITRDTSKNQFFLRMKSVTAEDTATYYCARKALWLRFDYWGQGTTLTVSS VL: EIVLTQSPAIMSVYLGEKVTMTCSASLSVSYMHWYQQKSSTSPKLWIYDTSKVASGVPGRFSGSGSGNSYSLTISSMEAEDVATYYCFQGSGYPFTFGSGTKLEIKR | 4.64 |

Now, please, on to the next binder.
(Q) What does the data say about its MFI? Entry: Ovr110.Q27 (antibody, IgG1, V domains shown, Mouse hybridoma MAb; also called Q27.4; Q27.2) VH: QVQPQQSGAELARPGASVKLSCKASGYTFTTYWMQWVKQRPGQGLEWIGAIYPGDGDTRYTQKFKGKATLTADKSSSTAYMQLSSLASEDSAVYYCAINWGYAMDYWGQGTSVTVSS VL: DIVLTQSHKIMSTSVGDRVSITCKASQDVRTAVAWYQQKPGQSPKLLIKSASYRYTGVPDRFSGSGSGTDFTFTISSVQAEDLAVYYCQQHYSNPTFGGGTKLEIKR
(A) 3.9
